Assay: activity coefficient (dimensionless); of the first substance listed, at infinite dilution; xn = mol fraction of the nth substance listed
Details: 308.15 K; 100 kPa; Liquid; Chromatography; x1 = 0
experimental_endpoint: activity coefficient

molecule: C1CCOC1 [tetrahydrofuran] + CC(O)C(=O)[O-].CC[N+]1(C)CCCC1
recorded_measurement: 3.51
--
molecule: C1CCCCC1 [cyclohexane] + CC(O)C(=O)[O-].CC[N+]1(C)CCCC1
recorded_measurement: 52.7
--
molecule: C=CCCCCCC [oct-1-ene] + CC(O)C(=O)[O-].CC[N+]1(C)CCCC1
recorded_measurement: 145
--
molecule: C=CCCCCCCCC [1-decene] + CC(O)C(=O)[O-].CC[N+]1(C)CCCC1
recorded_measurement: 349
--
molecule: CCC(C)(C)OC [2-methoxy-2-methylbutane] + CC(O)C(=O)[O-].CC[N+]1(C)CCCC1
recorded_measurement: 27.9

P = C1CCCCCC1 [cycloheptane] + CC(O)C(=O)[O-].CC[N+]1(C)CCCC1
Q = C#CCCCCCC [1-octyne] + CC(O)C(=O)[O-].CC[N+]1(C)CCCC1
R = C1=CCCCC1 [cyclohexene] + CC(O)C(=O)[O-].CC[N+]1(C)CCCC1
// smallest activity coefficient at index 0, largest at the end In plain terms: list the labels in the order you were asked to.
Q, R, P
(Q: 13.6, R: 22.4, P: 69.7)

====

Assay: activity coefficient (dimensionless); of the first substance listed, at infinite dilution; xn = mol fraction of the nth substance listed
Conditions: 398.15 K; 100 kPa; Liquid; Chromatography; x1 = 0
experimental_endpoint: activity coefficient

compound: CCCCO [butan-1-ol] + CC(O)C(=O)[O-].CC[N+]1(C)CCCC1
experimental_endpoint: activity coefficient
recorded_measurement: 0.453

A = O [water] + CC(O)C(=O)[O-].CC[N+]1(C)CCCC1
B = CO [methanol] + CC(O)C(=O)[O-].CC[N+]1(C)CCCC1
When their activity coefficient values are compared, which is larger, A or B ? Refer to your chosen item by its label in the answer.
B

====

Test: activity coefficient (dimensionless); of the first substance listed, at infinite dilution; xn = mol fraction of the nth substance listed
Details: 318.15 K; 100 kPa; Liquid; Chromatography; x1 = 0
experimental_endpoint: activity coefficient

compound: CC#N [acetonitrile] + CC(O)C(=O)[O-].CC[N+]1(C)CCCC1
experimental_endpoint: activity coefficient
recorded_measurement: 0.773
--
compound: CC(C)OC(C)C [diisopropyl ether] + CC(O)C(=O)[O-].CC[N+]1(C)CCCC1
experimental_endpoint: activity coefficient
recorded_measurement: 53.6
--
compound: COC(C)=O [methyl ethanoate] + CC(O)C(=O)[O-].CC[N+]1(C)CCCC1
experimental_endpoint: activity coefficient
recorded_measurement: 2.95
--
compound: C=CCCCCC [1-heptene] + CC(O)C(=O)[O-].CC[N+]1(C)CCCC1
experimental_endpoint: activity coefficient
recorded_measurement: 83.8
--
compound: CCCC(=O)OC [methyl butanoate] + CC(O)C(=O)[O-].CC[N+]1(C)CCCC1
experimental_endpoint: activity coefficient
recorded_measurement: 7.46

A = CCc1ccccc1 [ethylbenzene] + CC(O)C(=O)[O-].CC[N+]1(C)CCCC1
B = CCOC(C)(C)C [2-ethoxy-2-methylpropane] + CC(O)C(=O)[O-].CC[N+]1(C)CCCC1
C = C1=CCCCC1 [cyclohexene] + CC(O)C(=O)[O-].CC[N+]1(C)CCCC1
// smallest activity coefficient at index 0, largest at the end In plain terms: list the labels in the order you were asked to.
A, C, B

a = c1ccccc1 [benzene] + CC(O)C(=O)[O-].CC[N+]1(C)CCCC1
b = C#CCCCC [1-hexyne] + CC(O)C(=O)[O-].CC[N+]1(C)CCCC1
When their activity coefficient values are compared, which is larger, a or b ? Refer to your chosen item by its label in the answer.
b
(b: 5.48, a: 2.85)

P = CCCC(=O)CC [3-hexanone] + CC(O)C(=O)[O-].CC[N+]1(C)CCCC1
Q = C1CCCC1 [cyclopentane] + CC(O)C(=O)[O-].CC[N+]1(C)CCCC1
R = C1CCCCCC1 [cycloheptane] + CC(O)C(=O)[O-].CC[N+]1(C)CCCC1
// smallest activity coefficient at index 0, largest at the end In plain terms: list the labels in the order you were asked to.
P, Q, R
(P: 8.06, Q: 29.7, R: 64.6)

====

Test: activity coefficient (dimensionless); of the first substance listed, at infinite dilution; xn = mol fraction of the nth substance listed
Conditions: 318.15 K; 100 kPa; Liquid; Chromatography; x1 = 0
experimental_endpoint: activity coefficient

Examples with answers:
compound: CCCCCCCCC [nonane] + CC(O)C(=O)[O-].CC[N+]1(C)CCCC1
activity coefficient: 474
--
compound: CCCCCCC [heptane] + CC(O)C(=O)[O-].CC[N+]1(C)CCCC1
activity coefficient: 196
--
compound: C1CCOC1 [tetrahydrofuran] + CC(O)C(=O)[O-].CC[N+]1(C)CCCC1
activity coefficient: 3.54
--
compound: CCCC(C)=O [pentan-2-one] + CC(O)C(=O)[O-].CC[N+]1(C)CCCC1
activity coefficient: 4.7
--
compound: c1ccncc1 [pyridine] + CC(O)C(=O)[O-].CC[N+]1(C)CCCC1
activity coefficient: 1.26

I = C=CCCCCCC [oct-1-ene] + CC(O)C(=O)[O-].CC[N+]1(C)CCCC1
II = C1COCCO1 [1,4-dioxane] + CC(O)C(=O)[O-].CC[N+]1(C)CCCC1
III = C#CCCCCCC [1-octyne] + CC(O)C(=O)[O-].CC[N+]1(C)CCCC1
// smallest activity coefficient at index 0, largest at the end In plain terms: list the labels in the order you were asked to.
II, III, I

P = C#CCCCCC [1-heptyne] + CC(O)C(=O)[O-].CC[N+]1(C)CCCC1
Q = CC(C)CC(C)(C)C [2,2,4-trimethylpentane] + CC(O)C(=O)[O-].CC[N+]1(C)CCCC1
I'm curious whether P or Q has the smaller activity coefficient number. Which is it? Refer to your chosen item by its label in the answer.
P
(P: 8.83, Q: 242)

I = C1CCCCCCC1 [cyclooctane] + CC(O)C(=O)[O-].CC[N+]1(C)CCCC1
II = C#CCCC [1-pentyne] + CC(O)C(=O)[O-].CC[N+]1(C)CCCC1
III = CCOC(C)=O [ethyl acetate] + CC(O)C(=O)[O-].CC[N+]1(C)CCCC1
IV = C=CCCCCCCCC [1-decene] + CC(O)C(=O)[O-].CC[N+]1(C)CCCC1
# desc sort on activity coefficient across 4 compounds In plain terms: list the labels in the order you were asked to.
IV, I, III, II
(IV: 326, I: 88.7, III: 5.04, II: 3.43)

====

Assay: activity coefficient (dimensionless); of the first substance listed, at infinite dilution; xn = mol fraction of the nth substance listed
Conditions: 378.15 K; 100 kPa; Liquid; Chromatography; x1 = 0
experimental_endpoint: activity coefficient

molecule: CCC(=O)OC [methyl propanoate] + CC(O)C(=O)[O-].CC[N+]1(C)CCCC1
activity coefficient: 5.32
--
molecule: O [water] + CC(O)C(=O)[O-].CC[N+]1(C)CCCC1
activity coefficient: 0.052
--
molecule: CCO [ethanol] + CC(O)C(=O)[O-].CC[N+]1(C)CCCC1
activity coefficient: 0.201
--
molecule: CCCCO [butan-1-ol] + CC(O)C(=O)[O-].CC[N+]1(C)CCCC1
activity coefficient: 0.388
--
molecule: CCCC(=O)OC [methyl butanoate] + CC(O)C(=O)[O-].CC[N+]1(C)CCCC1
activity coefficient: 8.08

a = CCOC(C)=O [ethyl acetate] + CC(O)C(=O)[O-].CC[N+]1(C)CCCC1
b = CCCO [propan-1-ol] + CC(O)C(=O)[O-].CC[N+]1(C)CCCC1
c = CO [methanol] + CC(O)C(=O)[O-].CC[N+]1(C)CCCC1
d = COC(C)=O [methyl ethanoate] + CC(O)C(=O)[O-].CC[N+]1(C)CCCC1
# desc sort on activity coefficient across 4 molecules In plain terms: list the labels in the order you were asked to.
a, d, b, c
(a: 5.66, d: 3.45, b: 0.277, c: 0.105)

====

Assay: activity coefficient (dimensionless); of the first substance listed, at infinite dilution; xn = mol fraction of the nth substance listed
Settings: 318.15 K; 100 kPa; Liquid; Chromatography; x1 = 0
experimental_endpoint: activity coefficient

compound: CCCCC(C)=O [2-hexanone] + CC(O)C(=O)[O-].CC[N+]1(C)CCCC1
activity coefficient: 7.09
--
compound: CCCOCCC [dipropyl ether] + CC(O)C(=O)[O-].CC[N+]1(C)CCCC1
activity coefficient: 50.3
--
compound: CCCCCCCCCC [decane] + CC(O)C(=O)[O-].CC[N+]1(C)CCCC1
activity coefficient: 725

I = COC(C)(C)C [2-methoxy-2-methylpropane] + CC(O)C(=O)[O-].CC[N+]1(C)CCCC1
II = CC1CCCCC1 [methylcyclohexane] + CC(O)C(=O)[O-].CC[N+]1(C)CCCC1
III = CCC(=O)OC [methyl propanoate] + CC(O)C(=O)[O-].CC[N+]1(C)CCCC1
// smallest activity coefficient at index 0, largest at the end In plain terms: list the labels in the order you were asked to.
III, I, II
(III: 4.71, I: 18, II: 80.7)
